Data credit: PubChem BioAssay (NCI)

Test system: TK-10 renal
Experiment: NCI tumour cell line growth inhibition, 48 h; in the data active = GI50 below about 0.43 µM; inactive = the rest
Choose one outcome from this list and give only that: yes (1) for active, no (0) for inactive

stdin: How was `CC(=O)NCCc1c2c(c3nccc4c3c1Nc1ccccc1-4)OCS2` classified in this test?
stdout: no (0)

stdin: How was `CCN(CC)CCOCC[C@H]1CC[C@H]2[C@@H]3[C@H](C)Cc4cc(OS(N)(=O)=O)ccc4[C@H]3CC[C@]12C` classified in this test?
stdout: no (0)

stdin: How was `C=CC[n+]1c(/C=C/C=C2\N(C)c3ccccc3C2(C)C)sc2ccc(OC)cc21` classified in this test?
stdout: yes (1)

stdin: How was COc1ccc(C2CC(c3cc(OC)c(OC)c(OC)c3)=NO2)cc1OCCCCOc1cc2c(cc1OC)C(=O)N1CCC[C@H]1C=N2 (stereo partly drawn) classified in this test?
stdout: no (0)

stdin: How was `O=C(Nc1ccc(Cl)c(Cl)c1)c1cccc(NC2=C(Cl)C(=O)N(Cc3ccccc3)C2=O)c1` classified in this test?
stdout: no (0)

stdin: How was `Cc1ccc([N+](=O)[O-])cc1NC(=O)Nc1cccc(F)c1` classified in this test?
stdout: no (0)

stdin: How was `CC(C)[C@]12O[C@H]1[C@@H]1O[C@]13[C@]1(O[C@H]1C[C@H]1C4=C(CC[C@@]13C)C(=O)OC4)[C@@H]2O` classified in this test?
stdout: yes (1)

stdin: How was `CC(=O)N[C@@H](Cc1ccc(OP(=O)(O)O)cc1)C(=O)N[C@H]1CCC(=O)N2CCC[C@@H](C(=O)NCc3ccc(Cl)cc3)N2C1=O` classified in this test?
stdout: no (0)
